The measured values listed here are drawn from ChEMBL document CHEMBL2346548.

- Experiment Description: Cmax in C57BL/6 mouse at 40 mg/kg, po formulated in 30% HP-beta-CD
- Format: ADME, organism-based
- Parameters: dose 40 mg/kg, route oral
- Cond: in vivo
Metric: Cmax (ng/mL)
One number for each entry, in ng/mL.

I'd like to know its Cmax. The molecule in question is `O=C1c2ccccc2-n2c1nc1c(c2=O)CCCC1`
2260

----------
- Experiment Description: Protein binding in human plasma at 10 uM incubated for 8 hrs at 37 degC by equilibrium dialysis method
- Assay type: ADME, cell-free
- Cond: read-out: PPB (converted)
Metric: fraction unbound at 8 h, 10 µM

Use these answered entries as a reference point.
Smiles Input | fraction unbound at 8 h, 10 µM
O=C1C2=Nc3ccccc3CN2c2ccc(Cl)cc21 | 0.013
O=C1c2cc([N+](=O)[O-])ccc2-n2c1nc1ccccc1c2=O | 0.031
CCOC(=O)c1ccc2c(c1)C(=O)c1nc3ccccc3c(=O)n1-2 | 0.016

Each molecule below has a recorded value; state its fraction unbound at 8 h, 10 µM.
1. O=C1c2ccccc2-n2c1nc1c(c2=O)CCCC1
2. O=C1c2cc(C(=O)N3CCCCC3)ccc2-n2c1nc1ccccc1c2=O
3. O=C1c2ccc(Cl)cc2-n2c1nc1ccccc1c2=O
4. O=C1c2ccccc2-n2c1nc1ccccc1c2=O
5. O=C1c2cc(Cl)ccc2-n2c1nc1ncccc1c2=O

1. 0.043
2. 0.011
3. 0.01
4. 0.041
5. 0.051

----------
- Target Entity: CYP2C9 (Homo sapiens)
- Sequence (P11712 whole entry): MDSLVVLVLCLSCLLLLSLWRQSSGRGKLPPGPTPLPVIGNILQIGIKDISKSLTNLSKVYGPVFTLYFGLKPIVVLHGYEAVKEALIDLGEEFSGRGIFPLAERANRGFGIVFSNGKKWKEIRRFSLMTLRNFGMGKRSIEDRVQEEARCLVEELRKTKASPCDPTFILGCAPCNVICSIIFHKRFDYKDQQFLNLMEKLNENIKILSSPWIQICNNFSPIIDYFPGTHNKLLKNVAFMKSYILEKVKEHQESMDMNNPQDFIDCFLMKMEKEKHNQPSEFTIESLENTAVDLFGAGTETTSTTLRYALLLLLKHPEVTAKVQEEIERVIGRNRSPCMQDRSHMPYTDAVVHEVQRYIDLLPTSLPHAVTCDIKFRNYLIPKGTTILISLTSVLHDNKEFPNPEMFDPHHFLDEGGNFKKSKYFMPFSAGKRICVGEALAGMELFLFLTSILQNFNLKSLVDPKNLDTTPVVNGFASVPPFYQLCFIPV
- Experiment Description: Inhibition of human recombinant CYP2C9 at 10 uM incubated for 80 mins at 37 degC using 7-methoxy-4-trifluoromethylcoumarin substrate
- Type: ADME
- Cond: recombinant CYP2C9, probe 7-methoxy-4-trifluoromethylcoumarin
Consider the following molecules; for each one, report its inhibition at 80 min, 10 µM.
One number for each entry, in %.

Below: 3 molecules and their reported inhibition at 80 min, 10 µM.
Molecule | Metric | Readout Value
O=C1c2ccccc2-n2c1nc1ccc(Br)cc1c2=O | inhibition at 80 min, 10 µM | 20
O=C1C2=Nc3ccccc3CN2c2ccc(Cl)cc21 | inhibition at 80 min, 10 µM | 27
O=C1c2ccccc2-n2c1nc1ccccc1c2=O [TRYPTANTHRIN] | inhibition at 80 min, 10 µM | 25

# batch size: 5; output inhibition at 80 min, 10 µM per entry
1. CCOC(=O)c1ccc2c(c1)C(=O)c1nc3ccccc3c(=O)n1-2
2. O=C1c2cc(Cl)ccc2-n2c1nc1ncccc1c2=O
3. O=C1c2ccc(Cl)cc2-n2c1nc1ccccc1c2=O
4. O=C1c2cc(Br)ccc2-n2c1nc1ccncc1c2=O
5. O=C1c2cc(Cl)ccc2-n2c1nc1ccccc1c2=O

38
54
25
10
38

----------
For each of the compounds below, state its inhibition at 1 h, 10 µM.
- Target Entity: UniProtKB P33261
- Sequence (P33261 whole entry): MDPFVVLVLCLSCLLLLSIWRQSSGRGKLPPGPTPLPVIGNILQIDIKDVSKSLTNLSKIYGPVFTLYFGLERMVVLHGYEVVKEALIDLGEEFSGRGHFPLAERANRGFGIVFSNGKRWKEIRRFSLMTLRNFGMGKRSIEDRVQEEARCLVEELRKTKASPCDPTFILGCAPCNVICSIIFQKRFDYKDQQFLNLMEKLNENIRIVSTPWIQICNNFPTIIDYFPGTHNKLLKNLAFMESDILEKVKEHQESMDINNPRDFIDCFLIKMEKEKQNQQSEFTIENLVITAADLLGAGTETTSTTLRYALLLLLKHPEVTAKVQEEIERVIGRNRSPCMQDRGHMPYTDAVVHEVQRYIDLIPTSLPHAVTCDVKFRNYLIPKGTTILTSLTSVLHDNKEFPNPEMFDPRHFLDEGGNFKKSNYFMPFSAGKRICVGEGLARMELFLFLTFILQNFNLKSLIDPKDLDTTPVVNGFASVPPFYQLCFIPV
- Experiment Description: Inhibition of human recombinant CYP2C19 at 10 uM incubated for 60 mins at 37 degC using 3-cyano-7-ethoxycoumarin substrate
- Format: ADME
- Cond: recombinant CYP2C19, probe 3-cyano-7-ethoxycoumarin
Give bare numbers, in %.

Compound | Metric | Readout Value
O=C1c2ccc(Cl)cc2-n2c1nc1ccccc1c2=O | inhibition at 1 h, 10 µM | 4
O=C1c2ccccc2-n2c1nc1ccccc1c2=O [TRYPTANTHRIN] | inhibition at 1 h, 10 µM | 9
O=C1c2cc(Cl)ccc2-n2c1nc1ccccc1c2=O | inhibition at 1 h, 10 µM | 13
O=C1c2cc(Cl)ccc2-n2c1nc1ncccc1c2=O | inhibition at 1 h, 10 µM | 67
CCOC(=O)c1ccc2c(c1)C(=O)c1nc3ccccc3c(=O)n1-2 | inhibition at 1 h, 10 µM | 10

I need inhibition at 1 h, 10 µM for every entry listed below, if you could help.
1. O=C1c2ccccc2-n2c1nc1ccc(Br)cc1c2=O
2. O=C1c2cc(Br)ccc2-n2c1nc1ccncc1c2=O

[10, 16]
